Quick list: growth per entry.
# Tested on: MDA-MB-468 breast
# METHOD: NCI-60 one-dose screen, 48 h (100 = growth as untreated, 0 = no growth, -100 = all killed)
# STATED_CONDITIONS: 10 µM unless noted
Compounds without any hit were thinned out: in the full panel of roughly 83,000, 20% have a hit. Activity calls are given as the source filed them. The calls were made as follows: active = growth percent below 10; inactive = the rest.
ASSAY_READOUT: growth

{"columns": ["MOLECULE", "OBS_VALUE"],
 "data": [
  ["Fc1ccc(CNc2cccc3[nH]c(C(F)(F)F)nc23)cc1", "99.7% (inactive)"],
  ["CCc1ccc2nc(NC(=O)Cc3csc(NC(=O)c4ccco4)n3)sc2c1", "-54.2% (active)"],
  ["C=C(C)[C@@H]1CC[C@]2(C(=O)NCCCN)CC[C@]3(C)[C@H](CC[C@@H]4[C@@]5(C)CC[C@H](O)C(C)(C)[C@@H]5CC[C@]43C)[C@@H]12", "-19.9% [100 µM] (active)"],
  ["Cc1cc(C)c(OC(=O)CSc2nc3ccccc3c(=O)n2CCc2ccccc2)cc1C", "101% (inactive)"],
  ["Nc1nc(N)c2c(n1)NC(c1ccc3c(c1)OCO3)CC(c1cccc(Nc3ccncc3)c1)=N2 (stereo not drawn)", "62.7% (inactive)"],
  ["CCOC(OCC)C(=O)c1ccccc1", "102% (inactive)"],
  ["CCCCCC(CCC)COC(=O)c1ccc(OC)cc1 (stereo not drawn)", "104% (inactive)"],
  ["O=C(O)C(SC(C(=O)O)c1ccccc1)c1ccccc1 (stereo not drawn)", "106% (inactive)"],
  ["CC1=CC2C(C(O)CC3(C)C2CC(C)C32OCOC23COCO3)C2(C)C/C(=C/O)C(=O)C=C12 (stereo not drawn)", "-16.2% (active)"],
  ["CN1CCN(c2ccc(/C=N/n3cnc4oc(-c5ccccc5)cc4c3=N)cc2)CC1", "97.6% (inactive)"],
  ["CCCCO[C@@H]1C=C2[C@H]3CC(C)(C)C(=O)C[C@]3(C(=O)O[C@@H]3O[C@H](CO[C@@H]4O[C@H](CO)[C@@H](OC5OC(C)C(O)C(O)C5O)[C@H](O)[C@H]4O)[C@@H](O)[C@H](O)[C@H]3O)CC[C@@]2(C)[C@]2(C)CC[C@H]3C(C)(C)C(=O)CC[C@]3(C)[C@@H]12 (stereo partly drawn)", "101% (inactive)"],
  ["COc1cc2ncnc3c2cc1OCCCCCN(C)Cc1ccc(Br)cc1N3", "-26.6% (active)"],
  ["C/C(=N\\NC(=O)c1ccccc1N)c1ccccc1O", "15.5% (inactive)"],
  ["C[N+]1=C(/C=C\\C=C\\c2ccccc2)C(C)(C)c2ccccc21", "-14.9% (active)"],
  ["CCc1nc2cc(/C=C/C(=O)NO)ccc2c(=O)n1CCc1ccc(F)cc1", "-11.6% (active)"],
  ["O=C(CC(=O)Nc1ccc(Oc2ncnc3scc(Nc4n[nH]c(=S)s4)c23)cc1)Nc1ccc(Cl)cc1", "-18.5% (active)"],
  ["Cc1cc(Oc2ccccc2)ccc1Nc1ncnc2ccc(-c3cnc(Cl)c(NS(C)(=O)=O)c3)cc12", "-18.9% (active)"],
  ["CN1CCN(Cc2ccc(NC(=O)c3cncc(C#Cc4cnc5ccc(NCCO)nn45)c3)cc2C(F)(F)F)CC1", "-55.5% (active)"]
]}

* * *

# Test system: MDA-MB-468 breast
# METHOD: NCI-60 one-dose screen, 48 h
# STATED_CONDITIONS: 10 µM unless noted
This is part of a sample that, as a whole, favours compounds with a hit. Of some 83,000 tested, about 20% had one in any assay. Activity calls are given as the source filed them. The calls were made as follows: active = growth percent below 10; inactive = the rest.
Classes used: active, inactive

{"columns": ["COMPOUND", "TARGET_DESC", "ASSIGNED_CATEGORY"],
 "data": [
  ["O=C(NNc1nc2cc(F)c(F)cc2n2cccc12)c1cccnn1", "MDA-MB-468 breast", "active"],
  ["COC(=O)[C@@H](Cc1c[nH]c2ccccc12)NC(=O)CCCCOc1cc(O)c2c(=O)cc(-c3ccccc3)oc2c1", "MDA-MB-468 breast", "inactive"],
  ["NC(=O)NC(=O)c1ccc(Cl)cc1", "MDA-MB-468 breast", "inactive"],
  ["COC(=O)Nc1ccc2ccc3c(NC(=O)OC)ccc4ccc1c2c43 (tested in a mixture with another compound)", "MDA-MB-468 breast", "inactive"],
  ["O=C(N=Nc1c(O)[nH]c2ccccc12)Nc1ccc(F)cc1", "MDA-MB-468 breast", "inactive"],
  ["Cc1c(O)ccc(SC#N)c1C", "MDA-MB-468 breast", "inactive"],
  ["COc1cccc(NC(=O)Nc2ccc(Nc3ncnc4sc5c(c34)CCN(C(=O)CCl)C5)cc2)c1", "MDA-MB-468 breast", "inactive"],
  ["CC(=O)OCc1cc(-c2nc3ccccc3[nH]c2=O)nn1-c1ccc(Cl)cc1", "MDA-MB-468 breast", "inactive"],
  ["O=C(O)CNC(=O)C1(N2C(=O)c3ccccc3C2=O)CCCC1", "MDA-MB-468 breast", "inactive"],
  ["CC(=O)NCC(=O)N1[C@@H]2CC[C@H]1c1ccc(Nc3ncc(C(F)(F)F)c(NC4CCC4)n3)cc12", "MDA-MB-468 breast", "inactive"],
  ["Cc1cc2nc(C(Cl)Cl)nc(-c3ccc(S(=O)(=O)N(C)C)cc3)n2n1", "MDA-MB-468 breast", "active"],
  ["Nc1nc(=O)n([C@H]2C[C@H](O)[C@@H](CO)O2)cc1C=O", "MDA-MB-468 breast", "inactive"],
  ["COc1ccc(C2=NN(C(=O)c3cc(-c4ccc(C)cc4)nc4ccccc34)C(c3cc(-c4ccccc4)nn3-c3ccccc3)C2)cc1 (stereo not given)", "MDA-MB-468 breast", "inactive"],
  ["COc1cccc(C2C(C#N)=C(N)Oc3cc(N)ccc32)c1 (stereo not given)", "MDA-MB-468 breast", "active"],
  ["CC(=O)c1ccc2c(c1)CCc1ccccc1-2", "MDA-MB-468 breast", "inactive"],
  ["Cc1ccc(S(=O)(=O)c2c(COC(=O)c3cccc(C)c3)c(-c3ccccc3)nn2C)cc1", "MDA-MB-468 breast", "active"],
  ["N#Cc1c(NC(=O)NCc2ccccc2)sc2c1CCCC2", "MDA-MB-468 breast", "active"],
  ["COC(=O)c1c2c(c(C)[n+]([O-])c1C)C(=O)C=C(NCc1ccc(Cl)cc1)C2=O", "MDA-MB-468 breast", "active"],
  ["Cc1ccc(-c2nc3c(N=Nc4ccc(S(N)(=O)=O)cc4)c(N)nn3c(N)c2C#N)cc1", "MDA-MB-468 breast", "active"],
  ["COc1ccc2c(c1)nc(N)c1c3cc(C)c(C)cc3cn21", "MDA-MB-468 breast", "inactive"],
  ["Oc1[nH]c2ccc(Cl)cc2c1N=Nc1nc(N=Nc2c(O)[nH]c3ccc(Cl)cc23)nc(N2CCCCC2)n1", "MDA-MB-468 breast", "inactive"],
  ["Nc1nc(-c2cccc([N+](=O)[O-])c2)c(N=Nc2ccccc2Cl)s1", "MDA-MB-468 breast", "inactive"],
  ["Cc1ccc(NC2=C(Cl)C(=O)c3nc(C)ccc3C2=O)cc1", "MDA-MB-468 breast", "active"],
  ["O=S(=O)(NCCNc1cc(-c2cn(-c3ccccc3)nc2-c2ccccc2)ccn1)c1cccc2ccccc12", "MDA-MB-468 breast", "inactive"],
  ["COc1ccc2cc(-c3ccc(-c4ccc(C(=N)N)cc4)s3)ccc2c1", "MDA-MB-468 breast", "inactive"],
  ["CC1(C)CC[C@]2(CN)CC[C@]3(C)C(=CC[C@@H]4[C@@]5(C)CCCNC(C)(C)[C@@H]5CC[C@]43C)[C@H]2C1", "MDA-MB-468 breast", "inactive"],
  ["CCCCCCCCCCCCCCCCCC(=O)[O][Sn]([CH2]CCC)([CH2]CCC)[CH2]CCC", "MDA-MB-468 breast", "active"],
  ["O=C1Nc2ccccc2/C1=N/c1nc(-c2ccc(Cl)cc2)cs1", "MDA-MB-468 breast", "inactive"],
  ["CC(C)(C)CC(C)(C)c1ccc(OCCOCC[N+](C)(C)CC(=O)[O-])cc1", "MDA-MB-468 breast", "inactive"],
  ["C(=C\\c1ccccc1)/CN1CCN(C(c2ccccc2)c2ccccc2)CC1", "MDA-MB-468 breast", "inactive"],
  ["CCOC(=O)C(=CCC(C)C)C(=O)OCC", "MDA-MB-468 breast", "inactive"],
  ["O=C(Nc1cccc(-n2cc(-c3ccncc3)c(-c3ccc(O)c(Cl)c3)n2)c1)c1ccc(Cl)c(Cl)c1", "MDA-MB-468 breast", "inactive"],
  ["COc1ccc(-c2[nH]nc(N)c2-c2cc(OC)c3c(c2)OCO3)cc1", "MDA-MB-468 breast", "inactive"],
  ["CCOC(=O)Cc1csc2nc(-c3ccccc3)nn12", "MDA-MB-468 breast", "inactive"],
  ["C/C(=N\\O)[C@@H]1CC[C@]2(CO)CC[C@]3(C)[C@H](CC[C@@H]4[C@@]5(C)CCCNC(C)(C)[C@@H]5CC[C@]43C)[C@@H]12", "MDA-MB-468 breast", "inactive"],
  ["O=C1C(=O)c2ccccc2C(O)=C1CCCc1ccc(C2CCCCC2)cc1", "MDA-MB-468 breast", "inactive"],
  ["COc1c(OCCCN2CCOCC2)ccc2c3n(c(=NC(=O)c4cnc(N)nc4)nc12)CCN3", "MDA-MB-468 breast", "active"],
  ["CCOC(=O)c1ccc(NC(=O)NC2=NCCS2)cc1", "MDA-MB-468 breast", "inactive"],
  ["CC(C)c1ccc(Cc2cnc(NC(=O)c3cc(Br)cs3)s2)cc1", "MDA-MB-468 breast", "active"],
  ["COc1ccc(-c2nc(NN)c3c(C)nn(-c4ccc(F)cc4)c3n2)cc1", "MDA-MB-468 breast", "inactive"]
]}
